These entries and their values trace back to patent US12052991B2.

tested on: Lolium rigidum (LOLRI); assay: Herbicidal pre-emergence action, test C (Table C2); format: in vivo; settings: dosage 1280 g/ha; visual scoring after about 3 weeks; 100% = plants have died, 0% = like control plants
measured.parameter: Pre-emergence action against Lolium rigidum (LOLRI)
The reply should read as a number followed by its unit.

[[record]]
compound = "Fc1ccc(Oc2ncc(Cl)cc2F)c(-c2cc(C(F)F)on2)c1 [Example 1-31]"
recorded_measurement = "100%"

[[record]]
compound = "Fc1cccc(Oc2ncc(Cl)cc2Cl)c1-c1cc(C(F)F)no1 [Example 1-21]"
recorded_measurement = "100%"


# evaluate next
Q: Specify reported Pre-emergence action against Lolium rigidum (LOLRI) for the compound shown: Fc1cccc(Oc2ccc(Cl)cn2)c1-c1cc(C(F)F)no1 [Example 1-17]
Result: 100%

* * *

Catalogue of Pre-emergence action against Lolium rigidum (LOLRI) readings, one per entry.
tested on: Lolium rigidum (LOLRI); assay: Herbicidal pre-emergence action, test C (Table C2); format: in vivo; details: dosage 1280 g/ha; visual scoring after about 3 weeks; 100% = plants have died, 0% = like control plants
Return type: number; implicit unit %.

[[record]]
smiles_data = "Cc1cccc(Oc2ccc(Cl)cn2)c1-c1cc(C(F)F)no1"
tested_on = "Lolium rigidum (LOLRI)"
recorded_measurement = 90


Q: Provide Pre-emergence action against Lolium rigidum (LOLRI), recorded with Lolium rigidum (LOLRI), of CCc1cccc(Oc2ccc(Cl)cn2)c1-c1cc(C(F)F)no1
Result: 100

Q: Check Lolium rigidum (LOLRI) data and give Pre-emergence action against Lolium rigidum (LOLRI) for Fc1cccc(Oc2ccccn2)c1-c1cc(C(F)F)no1 .
Result: 100

Q: Recall the reported Pre-emergence action against Lolium rigidum (LOLRI) of Fc1cccc(Oc2ccc(Br)cn2)c1-c1cc(C(F)F)no1 on Lolium rigidum (LOLRI) and write it down.
Result: 100

Q: Report value only: Pre-emergence action against Lolium rigidum (LOLRI), Lolium rigidum (LOLRI), Fc1cc(Cl)cnc1Oc1cccc(F)c1-c1cc(C(F)F)no1
Result: 100

Q: With Lolium rigidum (LOLRI) as the test system, provide measured Pre-emergence action against Lolium rigidum (LOLRI) for this molecule: FC(F)c1cc(-c2ccccc2Oc2ccc(Cl)cn2)on1
Result: 90

* * *

tested on: Alopecurus myosuroides (ALOMY); experiment: Herbicidal post-emergence action (Table B9); type: in vivo; details: 1280 g/ha; rated visually after about 3 weeks; 100% = plants have died, 0% = like control plants
List of Post-emergence action against Alopecurus myosuroides (ALOMY) values.
Report the value in % with no unit label.

As a guide, the following entries are already answered.
[[record]]
smiles_data = "Cc1cccc(Oc2ncc(Cl)cc2F)c1-c1cc(C(F)F)no1"
recorded_measurement = 100

[[record]]
smiles_data = "FC(F)c1cc(-c2ccccc2Oc2ccccn2)on1"
recorded_measurement = 100


Q: State, in one line, measured Post-emergence action against Alopecurus myosuroides (ALOMY) of Cc1cc(C)c(-c2cc(C(F)F)no2)c(Oc2ncc(Cl)cc2F)c1
Result: 90

Q: Identify measured Post-emergence action against Alopecurus myosuroides (ALOMY) corresponding to CCc1cccc(Oc2ccc(Cl)cn2)c1-c1cc(C(F)F)no1
Result: 100

Q: Item Cc1cc(C)c(-c2cc(C(F)F)no2)c(Oc2ccccn2)c1 : provide Post-emergence action against Alopecurus myosuroides (ALOMY)
Result: 100
